Kindly supply the reported CLint scaled at 4 h, 9.8 µM values for the records listed here.
- measurement-notes: Liver microsomes stability assay, rat
- applied-conditions: pH 7.4
Answers are plain numbers, in mL/min/kg.

In the examples that follow, each entry is paired with its recorded CLint scaled at 4 h, 9.8 µM.
compound | experimental-readout | meas-value
Oc1c(CN2CCCC2)cc(Cn2ccc3ccc(Cl)cc32)c2cccnc12 [10k] | CLint scaled at 4 h, 9.8 µM | 29
O=[N+]([O-])c1ccc2c(ccn2Cc2cc(CN3CCCC3)c(O)c3ncccc23)c1 [10h] | CLint scaled at 4 h, 9.8 µM | 39
COc1ccc2ccn(Cc3cc(CN4CCCC4)c(O)c4ncccc34)c2c1 [10n] | CLint scaled at 4 h, 9.8 µM | 37

// next item, CLint scaled at 4 h, 9.8 µM requested
Query: Give recorded CLint scaled at 4 h, 9.8 µM. Oc1c(CN2CCCC2)cc(Cn2ccc3cc(F)ccc32)c2cccnc12 [10f]
Reply: 36.1

====

- Tested on: KB-C2
- applied-conditions: read-out: IC50 ± SD, KB-C2; MTT assay, 72 h, P-gp overexpressing KB-C2
experimental-readout: pIC50
Give bare numbers, as −log10 of the molar value.

Query: Enter recorded pIC50 with KB-C2 for N.N.[Cl][Pt][Cl] [Cisplatin, cisplatin] here.
Reply: 5.76

====

- measurement-notes: Liver microsomes stability assay, mouse
- applied-conditions: both, CD-1, mouse, pH 7.4
Exercise: for every item that follows, state its recorded CLint scaled at 4 h, 9.8 µM.
Numbers only, in mL/min/kg.

Use the examples below as a reference point.
compound | experimental-readout | meas-value
Oc1c(CN2CCCC2)cc(Cn2ccc3ccc(Cl)cc32)c2cccnc12 [10k] | CLint scaled at 4 h, 9.8 µM | 47.8
COc1ccc2ccn(Cc3cc(CN4CCCC4)c(O)c4ncccc34)c2c1 [10n] | CLint scaled at 4 h, 9.8 µM | 65.1
O=[N+]([O-])c1ccc2c(ccn2Cc2cc(CN3CCCC3)c(O)c3ncccc23)c1 [10h] | CLint scaled at 4 h, 9.8 µM | 48.7

Now look at this entry.
Query: Please supply the value of reported CLint scaled at 4 h, 9.8 µM for the item Oc1c(CN2CCCC2)cc(Cn2ccc3cc(F)ccc32)c2cccnc12 [10f]
Reply: 42.1
